targetSystem: Anti-CD28 Fab (SEQ ID NOs: 696, 697)
Sequence (VH, as listed by the source, chain 1 of 2): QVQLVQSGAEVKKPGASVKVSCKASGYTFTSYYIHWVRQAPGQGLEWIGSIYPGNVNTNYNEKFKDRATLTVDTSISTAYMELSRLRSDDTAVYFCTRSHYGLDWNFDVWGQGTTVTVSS
Sequence (VL, as listed by the source, chain 2 of 2): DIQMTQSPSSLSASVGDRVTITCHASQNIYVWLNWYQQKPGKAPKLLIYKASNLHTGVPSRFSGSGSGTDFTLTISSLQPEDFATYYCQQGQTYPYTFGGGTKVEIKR
protocolNotes: phage binding ELISA; biotinylated anti-CD28 Fab on neutravidin plate, clonal phage supernatant, anti-M13 HRP detection
Give measured Anti-CD28 Fab signal (phage binding ELISA) for each item. Keep answers brief.
The reply should be a number, written without any unit.

[Q] Please give the measured Anti-CD28 Fab signal (phage binding ELISA) for this binder: YCEGHAPQYMTKCL (Peptide-87 library clone, tested as clonal phage supernatant with the peptide fused to the pIII filament of the bacteriophage) [Phage-911]
[A] 1.67

[Q] Also check YCDGHSPEYIGKCL (Peptide-87 library clone, tested as clonal phage supernatant with the peptide fused to the pIII filament of the bacteriophage) [Phage-917]
[A] 1.66

[Q] Would you mind doing YCDGHSREYMSKCL (Peptide-87 library clone, tested as clonal phage supernatant with the peptide fused to the pIII filament of the bacteriophage) [Phage-908] as well?
[A] 1.67

[Q] Subsequent entry: YCDGHSADYMAKCL (Peptide-87 library clone, tested as clonal phage supernatant with the peptide fused to the pIII filament of the bacteriophage) [Phage-912]
[A] 1.67

[Q] Follow-up entry: YCDGHIGLYLNKCL (Peptide-87 library clone, tested as clonal phage supernatant with the peptide fused to the pIII filament of the bacteriophage) [Phage-913]
[A] 1.66

[Q] Can you check YCEGHLPMYMIKCL (Peptide-87 library clone, tested as clonal phage supernatant with the peptide fused to the pIII filament of the bacteriophage) [Phage-914] next?
[A] 1.66

[Q] And then YCEGHAPQYMNKCL (Peptide-87 library clone, tested as clonal phage supernatant with the peptide fused to the pIII filament of the bacteriophage) [Phage-906] , what is it?
[A] 1.67

[Q] Next binder: YCDGHAAEYMAKCV (Peptide-87 library clone, tested as clonal phage supernatant with the peptide fused to the pIII filament of the bacteriophage) [Phage-909]
[A] 1.67
